Tested on: 16S rRNA in lysates of uropathogens
procedure_details: Species specificity of uropathogen probe pairs with the electrochemical sensor array (Example 1)
Format: binding
assay_conditions: probe pairs of Table 1
{Fluorescein} = fluorescein label (binding site for anti-fluorescein Fab-HRP); {Biotin} = biotin (capture probe anchor)

{"molecule": "PM: Proteus mirabilis probe pair: capture 202 (35 mer) SEQ ID NO: 3, detector 162 (35 mer) SEQ ID NO: 4 (nucleic acid, listed as Proteus mirabilis, DNA 1: 5' {Biotin}, sugars by position and backbone not given here; DNA 2: 5' {Fluorescein}, sugars by position and backbone not given here) DNA 1: GGGTTCATCCGATAGTGCAAGGTCCGAAGAGCCCC DNA 2: GGTCCGTAGACATTATGCGGTATTAGCCACCGTTT", "Species detected": "Pm"}
{"molecule": "EC: Escherichia coli probe pair: capture 449 (35 mer) SEQ ID NO: 1, detector 408 (35 mer) SEQ ID NO: 2 (nucleic acid, listed as Escherichia coli, DNA 1: 5' {Biotin}, sugars by position and backbone not given here; DNA 2: 5' {Fluorescein}, sugars by position and backbone not given here) DNA 1: GTCAATGAGCAAAGGTATTAACTTTACTCCCTTCC DNA 2: CTGAAAGTACTTTACAACCCGAAGGCCTTCTTCAT", "Species detected": "Ec"}
{"molecule": "PA: Pseudomonas aeruginosa probe pair: capture SEQ ID NO: 7, detector SEQ ID NO: 8 (nucleic acid, listed as Pseudomonas aeruginosa, DNA 1: DNA, 5' {Biotin}, backbone and methylation of C not given here; DNA 2: DNA, 5' {Fluorescein}, backbone and methylation of C not given here) DNA 1: CCCACTTTCTCCCTCAGGACGTATGCGGTATTAGC DNA 2: TTCCGGACGTTATCCCCCACTACCAGGCAGATTCC", "Species detected": "Pa"}
